- MEASUREMENT_NOTES: PAMPA (parallel artificial membrane permeability assay)
- Format: in vitro ADME
- RUN_PARAMETERS: membrane permeation rate (Pe); 50 mM MOPSO buffer pH 6.5 with 5.0% glycocholic acid, 37° C., 18 hours
Positions of bridges follow the written chain, without caps; N, C: chain ends. Non-standard residues stand in square brackets, D forms with d. Residues, ends and D or L forms follow the SMILES beside them. *: point of attachment. NMePhe(3-Cl) = CN[C@@H](Cc1cccc(Cl)c1)C(=O)O; NMeF = CN[C@@H](Cc1ccccc1)C(=O)O; NMeI = CC[C@H](C)[C@H](NC)C(=O)O; NMeL = CN[C@@H](CC(C)C)C(=O)O; NMeA = CN[C@@H](C)C(=O)O; Piperidide = C1CCN(*)CC1
# iPAMPA Pe annotations

COMPOUND: CC[C@H](C)[C@H](NC(=O)[C@H](Cc1ccccc1)N(C)C(=O)[C@H](Cc1cccc(Cl)c1)N(C)C(=O)[C@H](C)N(C)C(=O)[C@@H]1CCCN1C(=O)[C@@H]1CC(=O)N[C@@H](C)C(=O)N(C)[C@@H](CC(C)C)C(=O)N(C)[C@@H](Cc2ccccc2)C(=O)N[C@@H]([C@@H](C)O)C(=O)N(C)[C@@H](Cc2ccccc2)C(=O)N[C@@H](CC(C)C)C(=O)N1)C(=O)N1CCCCC1 [DP-915] (A[NMeL][NMeF]T[NMeF]LDP[NMeA][NMePhe(3-Cl)][NMeF]I-Piperidide; lactam N-7)
iPAMPA Pe: 1.0E−07

Prompt: Look up iPAMPA Pe of CC[C@H](C)[C@H]1C(=O)N[C@@H](C(C)C)C(=O)N(C)[C@@H](Cc2ccccc2)C(=O)N[C@@H](CC(C)C)C(=O)N(C)[C@@H](Cc2ccccc2)C(=O)N[C@H](C(=O)N(C)[C@@H](Cc2ccccc2)C(=O)N[C@@H](C)C(=O)N[C@H](C(=O)N[C@@H](Cc2ccccc2)C(=O)N2CCCCC2)[C@@H](C)O)CC(=O)N[C@@H](C)C(=O)N[C@@H](CC(C)C)C(=O)N1C [DP-572] (AL[NMeI]V[NMeF]L[NMeF]D[NMeF]ATF-Piperidide; lactam N-8) and report it.
Completion: 1.0E−07
